Target: GluD2-L656V (Rattus norvegicus, UniProt Q63226, L656V)
Construct: expressed in transfected cells; host or cells: Xenopus laevis oocytes injected with cRNA
Sequence (Q63226 24-1007 L656V): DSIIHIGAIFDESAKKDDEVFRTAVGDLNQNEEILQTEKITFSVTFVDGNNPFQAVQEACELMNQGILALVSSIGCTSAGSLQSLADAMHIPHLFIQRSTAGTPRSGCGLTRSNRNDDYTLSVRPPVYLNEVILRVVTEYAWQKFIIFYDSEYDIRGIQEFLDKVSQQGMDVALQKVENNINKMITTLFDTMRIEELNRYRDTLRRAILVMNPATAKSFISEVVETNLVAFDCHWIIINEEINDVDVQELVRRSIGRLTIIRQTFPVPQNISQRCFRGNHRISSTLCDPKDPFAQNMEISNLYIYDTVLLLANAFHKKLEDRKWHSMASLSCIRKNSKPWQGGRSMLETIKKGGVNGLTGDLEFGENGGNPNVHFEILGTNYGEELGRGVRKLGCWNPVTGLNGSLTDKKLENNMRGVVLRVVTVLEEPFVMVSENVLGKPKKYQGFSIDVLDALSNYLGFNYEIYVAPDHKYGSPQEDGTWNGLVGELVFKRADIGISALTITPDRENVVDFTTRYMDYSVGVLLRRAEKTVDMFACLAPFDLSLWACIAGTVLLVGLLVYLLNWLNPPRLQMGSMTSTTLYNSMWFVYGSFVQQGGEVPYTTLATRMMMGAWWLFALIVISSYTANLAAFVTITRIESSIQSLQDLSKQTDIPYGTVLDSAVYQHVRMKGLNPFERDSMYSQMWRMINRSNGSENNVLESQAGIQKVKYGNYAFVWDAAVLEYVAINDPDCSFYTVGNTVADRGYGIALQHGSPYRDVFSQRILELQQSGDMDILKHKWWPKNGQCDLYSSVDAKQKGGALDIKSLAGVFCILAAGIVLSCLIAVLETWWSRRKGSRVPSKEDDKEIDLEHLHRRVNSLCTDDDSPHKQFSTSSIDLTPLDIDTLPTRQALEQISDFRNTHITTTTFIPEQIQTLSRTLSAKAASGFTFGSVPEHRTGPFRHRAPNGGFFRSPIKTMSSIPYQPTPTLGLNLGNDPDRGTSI
Experiment: TEVC of constitutive current, Xenopus oocytes expressing GluD2-L656V
Type: cell-based
Conditions: read-out: Pentamidine IC50
OUTCOME MEASURE: pIC50
Please keep in mind that pIC50 is minus log10 of the molar concentration; only the number is needed.

Req: State the recorded pIC50 for this entry: N=C(N)c1ccc(OCCCCCOc2ccc(C(=N)N)cc2)cc1
Resp: 5.00
